The measured values listed here are drawn from paper PMC11493283.

# Assay Info: in vitro
# Type: cell-based
# Test Context: African green monkey; Vero cells, MTT, 24h
I'd be grateful if you could share measured CC50 for these entries.
The figure you give is taken to be in µM; do not add the unit.

Item O=c1nc(NO)ccn1[C@@H]1O[C@H](CO)[C@@H](O)[C@H]1O [NHC, N^4-hydroxycytidine] : provide CC50
203

Please supply the value of reported CC50 for the item NC(=O)c1ncn([C@@H]2O[C@H](CO)[C@@H](O)[C@H]2O)n1 [RBV, ribavirin]
1780

###

# Assay Info: in vitro
# Assay type: cell-based
# Test Context: human; hNSCs, MTT, 24h
Assay Metric: CC50 (µM)
Output spec: scalar in µM, unitless text.

For the compound O=c1nc(NO)ccn1[C@@H]1O[C@H](CO)[C@@H](O)[C@H]1O [NHC, N^4-hydroxycytidine] , give its measured CC50 value.
132

Look up and report measured CC50 for this entry: NC(=O)c1ncn([C@@H]2O[C@H](CO)[C@@H](O)[C@H]2O)n1 [RBV, ribavirin]
1260
